system: MD-MBA-231; format: cell-based, human; settings: 72 h
Square brackets hold non-standard residues; d marks the D form. Peptide text beside a SMILES is read from it.
Listing of entries alongside the reported IC50 MD-MBA-231.

molecule	IC50 MD-MBA-231
CC(C)C[C@@H]1NC(=O)[C@@H]2CCCN2C(=O)[C@H](CC(C)C)NC(=O)[C@@H]2CCCN2C(=O)[C@@H](CC(C)C)NC1=O [Compound Z-4, Cyclo (Leu-Pro-D-Leu-Pro-Leu)] (cyclo(LPL[dL]P))	22.09 ± 1.12 µg/mL

*Q* // IC50 MD-MBA-231 lookup, key: CC(C)C[C@@H]1NC(=O)[C@@H]2CCCN2C(=O)[C@H](CC(C)C)NC(=O)[C@@H]2CCCN2C(=O)[C@H](CC(C)C)NC1=O [Compound Z-2, Cyclo (Leu-Pro-Leu-Pro-Leu)] (cyclo(LLPLP))
*A* 14.45 ± 1.10 µg/mL

*Q* Name the recorded IC50 MD-MBA-231 for CC(C)C[C@@H]1NC(=O)[C@@H]2CCCN2C(=O)[C@@H](CC(C)C)NC(=O)[C@@H]2CCCN2C(=O)[C@@H](CC(C)C)NC1=O [Compound Z-7, Cyclo (Leu-Pro-D-Leu-Pro-D-Leu)] (cyclo(L[dL]P[dL]P)) .
*A* 16.52 ± 1.70 µg/mL

*Q* Bench note: what IC50 MD-MBA-231 did CC(C)C[C@@H]1NC(=O)[C@@H]2CCCN2C(=O)[C@@H](CC(C)C)NC(=O)[C@@H]2CCCN2C(=O)[C@H](CC(C)C)NC1=O [Compound Z-5, Cyclo (Leu-Pro-Leu-Pro-D-Leu)] (cyclo(LLP[dL]P)) show?
*A* 8.48 ± 1.12 µg/mL

*Q* So what does the record say about IC50 MD-MBA-231 for CC(C)C[C@@H]1NC(=O)[C@@H](CC(C)C)NC(=O)[C@@H]2CCCN2C(=O)[C@H](CC(C)C)NC(=O)[C@@H]2CCCN2C1=O [Compound Z-3, Cyclo (Leu-Pro-Leu-Pro-Leu)] (cyclo(LPLP[dL])) ?
*A* 6.34 ± 0.60 µg/mL

*Q* Which IC50 MD-MBA-231 value belongs to `CC(C)C[C@@H]1NC(=O)[C@H](CC(C)C)N(C)C(=O)[C@H](CC(C)C)NC(=O)[C@@H]2CCCN2C(=O)[C@H](CC(C)C)NC1=O` ?
*A* 17.81 ± 0.60 µg/mL

*Q* Which IC50 MD-MBA-231 is reported for this molecule? CC(C)C[C@@H]1NC(=O)[C@@H]2CCCN2C(=O)[C@@H](CC(C)C)NC(=O)[C@@H](CC(C)C)NC(=O)[C@@H]2CCCN2C1=O [Compound Z-6, Cyclo (D-Leu-Pro-Leu-Pro-D-Leu)] (cyclo(LP[dL][dL]P))
*A* 4.59 ± 0.27 µg/mL

All values here come from paper PMC8949366.
